systemTested: NUAK2 (h) (Homo sapiens, UniProt Q9H093)
Construct: This assay was done radiometrically using full-length, recombinant enzyme
Sequence (Q9H093 whole entry): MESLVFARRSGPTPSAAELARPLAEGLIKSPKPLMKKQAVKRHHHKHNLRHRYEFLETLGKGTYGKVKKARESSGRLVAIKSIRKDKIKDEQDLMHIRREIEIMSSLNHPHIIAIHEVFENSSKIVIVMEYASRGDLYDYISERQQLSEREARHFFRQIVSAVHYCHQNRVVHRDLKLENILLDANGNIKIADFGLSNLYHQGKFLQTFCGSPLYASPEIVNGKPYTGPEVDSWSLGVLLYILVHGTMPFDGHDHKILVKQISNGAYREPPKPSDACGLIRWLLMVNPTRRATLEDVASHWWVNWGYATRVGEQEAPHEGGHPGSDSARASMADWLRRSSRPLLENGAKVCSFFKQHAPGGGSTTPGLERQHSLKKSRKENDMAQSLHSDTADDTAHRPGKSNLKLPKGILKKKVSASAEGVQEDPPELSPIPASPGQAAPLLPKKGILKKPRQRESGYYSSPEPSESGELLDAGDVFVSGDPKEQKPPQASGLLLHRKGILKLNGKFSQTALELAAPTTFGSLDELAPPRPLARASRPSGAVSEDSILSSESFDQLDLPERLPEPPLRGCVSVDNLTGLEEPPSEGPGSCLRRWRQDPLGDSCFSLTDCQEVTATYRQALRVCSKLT
assayComment: NUAK2 enzymatic assay (radiometric, Eurofins)
reportedConditions: full-length recombinant enzyme
Method: To identify small molecule NUAK inhibitors, a biochemical NUAK2 enzymatic assay were outsourced to Eurofins. This assay was done radiometrically using full-length, recombinant enzyme. NUAK2 (h) was incubated with 8 mM MOPS pH 7.0, 0.2 mM EDTA, 300 μM […], 10 mM magnesium acetate and […] (specific activity and concentration as required). The reaction was initiated by the addition of the Mg/ATP mix. […]
Readings of IC50 for the listed molecules

Consider the following illustrative entries.
CC(C)(C)N1CCN(C2CCN(c3ccc(Nc4ncc(C(F)(F)F)c(Nc5cccc6c5C(=O)NC6)n4)c(OC(F)F)c3)CC2)CC1	0.1 to 10 nM
COc1cc2c(cc1Nc1ncc(Cl)c(Nc3cccc4c3C(=O)NC4)n1)CN(C)CC2(C)C	11 to 100 nM
O=C1NCc2cccc(Nc3nc(Nc4ccc(N5C[C@H]6CNC[C@H]6C5)cc4OC(F)F)ncc3Cl)c21	0.1 to 10 nM
COc1cc(CN(C)C)ccc1Nc1ncc(Cl)c(Nc2ccc(F)c3c2C(=O)NC3)n1	11 to 100 nM
CN1C[C@@H]2C[C@H]1CN2c1ccc(Nc2ncc(C(F)(F)F)c(Nc3cccc4c3C(=O)NC4)n2)c(OC(F)F)c1	0.1 to 10 nM
COc1cc2c(cc1Nc1ncc(Cl)c(Nc3cccc4c3C(=O)NC4)n1)CCN(C(C)C)C2	0.1 to 10 nM

// fetch IC50 given entry `CC(C)Oc1cc(N2CCN(C)CC2)ccc1Nc1ncc(Cl)c(Nc2cccc3c2C(=O)NC3)n1`
101 to 1000 nM

---

systemTested: Aurora A (Homo sapiens, UniProt O14965)
Sequence (O14965 whole entry): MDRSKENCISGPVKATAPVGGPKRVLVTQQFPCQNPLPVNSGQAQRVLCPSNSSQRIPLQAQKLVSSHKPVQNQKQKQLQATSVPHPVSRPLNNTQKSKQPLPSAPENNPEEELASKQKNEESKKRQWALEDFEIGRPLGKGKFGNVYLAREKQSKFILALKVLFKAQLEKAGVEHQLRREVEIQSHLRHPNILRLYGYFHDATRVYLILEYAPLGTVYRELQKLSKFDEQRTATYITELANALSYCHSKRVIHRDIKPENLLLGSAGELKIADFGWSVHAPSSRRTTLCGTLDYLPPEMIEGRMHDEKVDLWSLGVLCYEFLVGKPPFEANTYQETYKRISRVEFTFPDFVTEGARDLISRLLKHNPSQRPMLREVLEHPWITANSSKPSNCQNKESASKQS
assayComment: Counter-screen against Aurora A
Format: biochemical
reportedConditions: read-out: AUR-A (IC50)
measurementLabel: IC50

These recorded examples may help you get a feel for the data.
COc1nc(N2CCC(N3CCN(C)CC3)CC2)ccc1Nc1ncc(Cl)c(Nc2cccc3c2C(=O)NC3)n1	0.011 to 0.1 µM
C[C@@H]1CN(C2CCN(c3ccc(Nc4ncc(C(F)(F)F)c(Nc5cccc6c5C(=O)NC6)n4)c(OC(F)F)c3)CC2)C[C@H](C)N1C	0.101 to 1 µM
COc1cc2c(cc1Nc1ncc(Cl)c(Nc3cccc4c3C(=O)NC4)n1)CCN(C(C)C)C2	> 1 µM
COc1cc2c(cc1Nc1ncc(Cl)c(Nc3cccc4c3C(=O)NC4)n1)CN(C)CC2(C)C	> 1 µM
CN1CCN(c2ccc(Nc3ncc(Cl)c(Nc4ccc(F)c5c4C(=O)NC5)n3)c(OC(F)F)c2)CC1	> 1 µM
CN1C[C@@H]2C[C@H]1CN2c1ccc(Nc2ncc(C(F)(F)F)c(Nc3cccc4c3C(=O)NC4)n2)c(OC(F)F)c1	0.101 to 1 µM
CN1CCc2ccc(Nc3ncc(Cl)c(Nc4cccc5c4C(=O)NC5)n3)cc2C1	0.0001 to 0.01 µM
CN1CCN(c2ccc(Nc3ncc(Cl)c(Nc4cccc5c4C(=O)NC5)n3)cc2)CC1	0.0001 to 0.01 µM
COc1cc2c(cc1Nc1ncc(C(F)(F)F)c(Nc3cccc4c3C(=O)NC4)n1)CCNC2	> 1 µM
COc1cc2c(cc1Nc1ncc(C(F)(F)F)c(Nc3cccc4c3C(=O)NC4)n1)CNCC2	0.101 to 1 µM

For the molecule `COc1cc2c(cc1Nc1ncc(Cl)c(Nc3cccc4c3C(=O)NC4)n1)CCNCC2` , give its measured IC50 value.
> 1 µM

Return the recorded IC50 value; entry: `O=C1NCc2cccc(Nc3nc(Nc4ccc(N5C[C@H]6CNC[C@H]6C5)cc4OC(F)F)ncc3Cl)c21`
0.101 to 1 µM

Assign IC50 to the following record: `COc1cc2c(cc1Nc1ncc(C(F)(F)F)c(Nc3cccc4c3C(=O)NC4)n1)CNCC21CC1`
> 1 µM

Give IC50 for the following molecule: `O=C1NCc2cccc(Nc3nc(Nc4ccc(N5CCNCC5)cc4OC(F)F)ncc3F)c21`
0.101 to 1 µM

Quickly give me recorded IC50 for `CCN1CCN(C2CCN(c3ccc(Nc4ncc(C(F)(F)F)c(Nc5cccc6c5C(=O)NC6)n4)c(OC(F)F)c3)CC2)CC1`
0.101 to 1 µM

Item `CCN1CCN(c2ccc(Nc3nccc(Nc4cccc5c4C(=O)NC5)n3)cc2F)CC1` : provide IC50
0.0001 to 0.01 µM

Note down IC50 recorded for `CN1CCN(c2ccc(Nc3ncc(C(F)(F)F)c(Nc4cccc5c4C(=O)NC5)n3)c(Cl)c2F)CC1`
0.011 to 0.1 µM

Find the measured IC50 of `O=C1NCc2cccc(Nc3nc(Nc4ccc(N5[C@@H]6CC[C@H]5CNC6)cc4OC(F)F)ncc3Cl)c21` and report it.
0.0001 to 0.01 µM

Entry `CN1CCN(c2ccc(Nc3ncc(C(F)(F)F)c(Nc4cccc5c4C(=O)NC5)n3)c(OC(F)(F)F)c2)CC1` needs its IC50 filled in; supply it.
> 1 µM

Report measured IC50; entry is `CC(C)N1CCN(C2CCN(c3ccc(Nc4ncc(C(F)(F)F)c(Nc5cccc6c5C(=O)NC6)n4)c(OC(F)F)c3)CC2)CC1`
0.101 to 1 µM

---

Sequence of the target: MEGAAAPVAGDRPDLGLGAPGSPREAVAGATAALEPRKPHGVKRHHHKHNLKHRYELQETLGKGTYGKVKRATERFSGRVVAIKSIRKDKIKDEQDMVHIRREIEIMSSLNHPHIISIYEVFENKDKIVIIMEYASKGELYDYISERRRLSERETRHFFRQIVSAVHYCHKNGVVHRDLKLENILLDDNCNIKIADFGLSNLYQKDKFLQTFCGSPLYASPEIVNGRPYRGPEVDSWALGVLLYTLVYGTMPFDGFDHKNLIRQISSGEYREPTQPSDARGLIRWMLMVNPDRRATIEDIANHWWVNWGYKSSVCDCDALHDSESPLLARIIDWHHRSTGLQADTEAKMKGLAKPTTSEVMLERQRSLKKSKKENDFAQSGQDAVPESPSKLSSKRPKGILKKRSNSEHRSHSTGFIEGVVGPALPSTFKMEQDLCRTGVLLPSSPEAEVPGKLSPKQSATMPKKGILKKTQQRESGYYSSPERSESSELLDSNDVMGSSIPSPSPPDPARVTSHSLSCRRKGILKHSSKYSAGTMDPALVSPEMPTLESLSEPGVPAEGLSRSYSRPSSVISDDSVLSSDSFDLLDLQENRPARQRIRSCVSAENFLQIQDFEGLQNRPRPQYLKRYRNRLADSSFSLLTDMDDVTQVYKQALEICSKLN
pIC50: −log10 of the molar value.
Collected pIC50 values appear next to each entry.

O=C1NCc2cccc(Nc3nc(Nc4ccc(N5CCNCC5)cc4OC(F)F)ncc3F)c21 [Compound I-42]	6.00 to 7.00
CN1CCc2ccc(Nc3ncc(Cl)c(Nc4cccc5c4C(=O)NC5)n3)cc2C1 [Compound I-10]	8.00 to 10.00
COc1c(Nc2ncc(Cl)c(Nc3cccc4c3C(=O)NC4)n2)ccc(N2CCC(N3CCN(C)CC3)CC2)c1F [Compound I-7]	7.00 to 7.96
O=C1NCc2cccc(Nc3nc(Nc4ccc(N5CCC(N6CCNCC6)CC5)cc4OC(F)F)ncc3C(F)(F)F)c21 [Compound I-40]	7.00 to 7.96
COc1c(Nc2ncc(C(F)(F)F)c(Nc3cccc4c3C(=O)NC4)n2)ccc(N2CCCN(C)CC2)c1F [Compound I-38]	7.00 to 7.96
COc1cc2c(cc1Nc1ncc(Cl)c(Nc3cccc4c3C(=O)NC4)n1)CCNC2 [Compound I-17]	7.00 to 7.96

Write down pIC50 measured for item COc1cc2c(cc1Nc1ncc(C(F)(F)F)c(Nc3cccc4c3C(=O)NC4)n1)CNCC21CC1 [Compound I-46]
7.00 to 7.96

---

systemTested: NUAK2 (h) (Homo sapiens)
Construct: This assay was done radiometrically using full-length, recombinant enzyme
assayComment: NUAK2 enzymatic assay (radiometric, Eurofins)
reportedConditions: full-length recombinant enzyme
pIC50: −log10 of the molar value.
Catalogue of pIC50 values

For orientation, consider the following solved cases.
O=C1NCc2cccc(Nc3nc(Nc4ccc(N5C[C@H]6CC[C@@H](C5)N6)cc4OC(F)F)ncc3C(F)(F)F)c21	8.00 to 10.00
C[C@@H]1CN(C2CCN(c3ccc(Nc4ncc(C(F)(F)F)c(Nc5cccc6c5C(=O)NC6)n4)c(OC(F)F)c3)CC2)C[C@H](C)N1C	8.00 to 10.00

Entry `COc1cc(CN(C)C)ccc1Nc1ncc(Cl)c(Nc2cccc3c2C(=O)NC3)n1` needs its pIC50 filled in; supply it.
8.00 to 10.00

Quick one: give measured pIC50 for `CN1CCN(c2ccc(Nc3ncc(Cl)c(Nc4ccc(F)c5c4C(=O)NC5)n3)c(OC(F)F)c2)CC1`
8.00 to 10.00

Provide pIC50 value for the following compound: `CCN1CCN(C2CCN(c3ccc(Nc4ncc(C(F)(F)F)c(Nc5cccc6c5C(=O)NC6)n4)c(OC(F)F)c3)CC2)CC1`
7.00 to 7.96

Dear colleague, please send me the reported pIC50 for `COc1cc2c(cc1Nc1ncc(C(F)(F)F)c(Nc3cccc4c3C(=O)NC4)n1)CN(C)CC2` when you can.
7.00 to 7.96

State, in one line, measured pIC50 of `CN1CCN(c2ccc(Nc3ncc(C(F)(F)F)c(Nc4cccc5c4C(=O)NC5)n3)c(OC(F)(F)F)c2)CC1`
7.00 to 7.96
